Entries and their measured MFI at 0.00128 nM follow.
- SYSTEM UNDER TEST: human delta-like ligand 3 (DLL3) on SHP77 cells (human) (UniProt Q9NYJ7)
- Sequence (Q9NYJ7 27-618, stated change not applied): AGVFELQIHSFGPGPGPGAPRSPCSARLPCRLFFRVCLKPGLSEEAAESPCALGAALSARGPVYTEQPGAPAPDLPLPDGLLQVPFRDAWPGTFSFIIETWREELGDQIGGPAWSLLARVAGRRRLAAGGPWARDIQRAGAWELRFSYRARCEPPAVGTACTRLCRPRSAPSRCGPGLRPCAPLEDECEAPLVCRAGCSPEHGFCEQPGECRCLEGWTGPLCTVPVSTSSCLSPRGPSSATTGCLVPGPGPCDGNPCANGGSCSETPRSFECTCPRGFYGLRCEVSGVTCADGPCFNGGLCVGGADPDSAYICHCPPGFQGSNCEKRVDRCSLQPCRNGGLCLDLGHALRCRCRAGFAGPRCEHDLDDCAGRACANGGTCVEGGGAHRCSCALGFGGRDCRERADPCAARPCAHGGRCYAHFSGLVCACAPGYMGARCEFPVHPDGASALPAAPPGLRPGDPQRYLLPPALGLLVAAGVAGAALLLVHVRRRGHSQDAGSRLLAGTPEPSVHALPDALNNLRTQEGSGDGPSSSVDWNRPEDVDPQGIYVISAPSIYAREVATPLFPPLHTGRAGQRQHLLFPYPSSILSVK
- ASSAY TEXT: FACS on SHP77 cells
Units required after the number.

BINDER	MFI at 0.00128 nM
Hab009VL1aVH1-hFc (scFv, part only; not given: scFv linker and human IgG1 Fc, V domains shown, not shown: another chain or arm of the molecule; a dimerising Fc or GST; small tags and cut ends) VL: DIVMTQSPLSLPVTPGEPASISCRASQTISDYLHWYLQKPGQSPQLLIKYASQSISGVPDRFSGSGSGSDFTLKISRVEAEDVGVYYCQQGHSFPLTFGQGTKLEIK VH: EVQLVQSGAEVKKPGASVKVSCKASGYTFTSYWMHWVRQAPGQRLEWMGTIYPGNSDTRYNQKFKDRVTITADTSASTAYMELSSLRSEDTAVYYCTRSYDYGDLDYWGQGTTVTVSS	107 MFI
Hab014VL2VH1-hFc (scFv, part only; not given: scFv linker and human IgG1 Fc, V domains shown, not shown: another chain or arm of the molecule; a dimerising Fc or GST; small tags and cut ends) VL: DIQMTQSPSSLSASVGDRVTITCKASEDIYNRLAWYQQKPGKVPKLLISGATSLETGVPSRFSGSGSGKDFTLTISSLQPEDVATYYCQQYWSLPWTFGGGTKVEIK VH: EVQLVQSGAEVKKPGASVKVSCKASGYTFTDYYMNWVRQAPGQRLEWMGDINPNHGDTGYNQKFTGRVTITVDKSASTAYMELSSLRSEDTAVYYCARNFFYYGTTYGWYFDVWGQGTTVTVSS	91 MFI
Hab008L3H2a-hFc (scFv, part only; not given: VL-VH linker and human IgG1 Fc, V domains shown, not shown: another chain or arm of the molecule; a dimerising Fc or GST; small tags and cut ends) VL: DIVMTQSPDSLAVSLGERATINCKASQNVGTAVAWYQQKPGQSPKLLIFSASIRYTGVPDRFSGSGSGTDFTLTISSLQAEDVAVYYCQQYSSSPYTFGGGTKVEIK VH: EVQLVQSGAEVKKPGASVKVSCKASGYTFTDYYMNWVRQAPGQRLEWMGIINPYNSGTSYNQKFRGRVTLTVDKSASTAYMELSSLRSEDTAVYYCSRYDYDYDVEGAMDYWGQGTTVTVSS	117 MFI
Hab015VL5VH1b-hFc (scFv, part only; not given: VL-VH linker and human IgG1 Fc, V domains shown, not shown: another chain or arm of the molecule; a dimerising Fc or GST; small tags and cut ends) VL: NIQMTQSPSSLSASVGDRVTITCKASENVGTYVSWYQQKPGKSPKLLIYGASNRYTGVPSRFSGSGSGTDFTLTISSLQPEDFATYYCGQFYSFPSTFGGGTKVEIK VH: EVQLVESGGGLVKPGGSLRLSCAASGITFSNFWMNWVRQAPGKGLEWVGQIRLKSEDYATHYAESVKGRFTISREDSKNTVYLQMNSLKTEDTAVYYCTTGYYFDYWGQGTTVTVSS	102 MFI
Hab013VL2VH2a-hFc (scFv, part only; not given: scFv linker and human IgG1 Fc, V domains shown, not shown: another chain or arm of the molecule; a dimerising Fc or GST; small tags and cut ends) VL: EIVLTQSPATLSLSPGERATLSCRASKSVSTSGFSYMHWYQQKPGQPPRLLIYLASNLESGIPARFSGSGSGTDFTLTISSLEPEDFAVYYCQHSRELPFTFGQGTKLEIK VH: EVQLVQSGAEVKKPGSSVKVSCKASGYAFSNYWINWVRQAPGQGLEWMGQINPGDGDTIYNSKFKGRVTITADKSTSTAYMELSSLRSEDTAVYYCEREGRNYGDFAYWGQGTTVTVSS	116 MFI

Qu. Please give the documented MFI at 0.00128 nM of Hab014VL1VH2-hFc (scFv, part only; not given: VL-VH linker and human IgG1 Fc, V domains shown, not shown: another chain or arm of the molecule; a dimerising Fc or GST; small tags and cut ends) VL: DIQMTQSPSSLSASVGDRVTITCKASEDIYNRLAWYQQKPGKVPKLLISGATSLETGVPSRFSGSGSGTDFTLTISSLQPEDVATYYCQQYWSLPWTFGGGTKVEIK VH: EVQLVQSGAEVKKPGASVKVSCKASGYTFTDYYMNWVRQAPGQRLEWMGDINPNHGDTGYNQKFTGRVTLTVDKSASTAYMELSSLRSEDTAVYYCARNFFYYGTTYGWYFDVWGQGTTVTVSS
Ans. 90 MFI

Qu. Assign MFI at 0.00128 nM to the following record: BI3 (antibody, human IgG1, kappa, V domains shown) VH: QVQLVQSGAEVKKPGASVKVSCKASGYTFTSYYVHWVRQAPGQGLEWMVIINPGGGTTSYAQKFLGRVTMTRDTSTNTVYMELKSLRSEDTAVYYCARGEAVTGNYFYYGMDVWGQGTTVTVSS VL: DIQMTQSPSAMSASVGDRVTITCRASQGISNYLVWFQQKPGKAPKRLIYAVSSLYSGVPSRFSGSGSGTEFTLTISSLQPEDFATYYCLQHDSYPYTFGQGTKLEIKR
Ans. 101 MFI
